# testSystem: Ba/F3 cells containing Ros1 L2026M (Homo sapiens, UniProt P08922, L2026M, cells depend on it, form not given)
# Sequence (P08922 whole entry L2026M, form open): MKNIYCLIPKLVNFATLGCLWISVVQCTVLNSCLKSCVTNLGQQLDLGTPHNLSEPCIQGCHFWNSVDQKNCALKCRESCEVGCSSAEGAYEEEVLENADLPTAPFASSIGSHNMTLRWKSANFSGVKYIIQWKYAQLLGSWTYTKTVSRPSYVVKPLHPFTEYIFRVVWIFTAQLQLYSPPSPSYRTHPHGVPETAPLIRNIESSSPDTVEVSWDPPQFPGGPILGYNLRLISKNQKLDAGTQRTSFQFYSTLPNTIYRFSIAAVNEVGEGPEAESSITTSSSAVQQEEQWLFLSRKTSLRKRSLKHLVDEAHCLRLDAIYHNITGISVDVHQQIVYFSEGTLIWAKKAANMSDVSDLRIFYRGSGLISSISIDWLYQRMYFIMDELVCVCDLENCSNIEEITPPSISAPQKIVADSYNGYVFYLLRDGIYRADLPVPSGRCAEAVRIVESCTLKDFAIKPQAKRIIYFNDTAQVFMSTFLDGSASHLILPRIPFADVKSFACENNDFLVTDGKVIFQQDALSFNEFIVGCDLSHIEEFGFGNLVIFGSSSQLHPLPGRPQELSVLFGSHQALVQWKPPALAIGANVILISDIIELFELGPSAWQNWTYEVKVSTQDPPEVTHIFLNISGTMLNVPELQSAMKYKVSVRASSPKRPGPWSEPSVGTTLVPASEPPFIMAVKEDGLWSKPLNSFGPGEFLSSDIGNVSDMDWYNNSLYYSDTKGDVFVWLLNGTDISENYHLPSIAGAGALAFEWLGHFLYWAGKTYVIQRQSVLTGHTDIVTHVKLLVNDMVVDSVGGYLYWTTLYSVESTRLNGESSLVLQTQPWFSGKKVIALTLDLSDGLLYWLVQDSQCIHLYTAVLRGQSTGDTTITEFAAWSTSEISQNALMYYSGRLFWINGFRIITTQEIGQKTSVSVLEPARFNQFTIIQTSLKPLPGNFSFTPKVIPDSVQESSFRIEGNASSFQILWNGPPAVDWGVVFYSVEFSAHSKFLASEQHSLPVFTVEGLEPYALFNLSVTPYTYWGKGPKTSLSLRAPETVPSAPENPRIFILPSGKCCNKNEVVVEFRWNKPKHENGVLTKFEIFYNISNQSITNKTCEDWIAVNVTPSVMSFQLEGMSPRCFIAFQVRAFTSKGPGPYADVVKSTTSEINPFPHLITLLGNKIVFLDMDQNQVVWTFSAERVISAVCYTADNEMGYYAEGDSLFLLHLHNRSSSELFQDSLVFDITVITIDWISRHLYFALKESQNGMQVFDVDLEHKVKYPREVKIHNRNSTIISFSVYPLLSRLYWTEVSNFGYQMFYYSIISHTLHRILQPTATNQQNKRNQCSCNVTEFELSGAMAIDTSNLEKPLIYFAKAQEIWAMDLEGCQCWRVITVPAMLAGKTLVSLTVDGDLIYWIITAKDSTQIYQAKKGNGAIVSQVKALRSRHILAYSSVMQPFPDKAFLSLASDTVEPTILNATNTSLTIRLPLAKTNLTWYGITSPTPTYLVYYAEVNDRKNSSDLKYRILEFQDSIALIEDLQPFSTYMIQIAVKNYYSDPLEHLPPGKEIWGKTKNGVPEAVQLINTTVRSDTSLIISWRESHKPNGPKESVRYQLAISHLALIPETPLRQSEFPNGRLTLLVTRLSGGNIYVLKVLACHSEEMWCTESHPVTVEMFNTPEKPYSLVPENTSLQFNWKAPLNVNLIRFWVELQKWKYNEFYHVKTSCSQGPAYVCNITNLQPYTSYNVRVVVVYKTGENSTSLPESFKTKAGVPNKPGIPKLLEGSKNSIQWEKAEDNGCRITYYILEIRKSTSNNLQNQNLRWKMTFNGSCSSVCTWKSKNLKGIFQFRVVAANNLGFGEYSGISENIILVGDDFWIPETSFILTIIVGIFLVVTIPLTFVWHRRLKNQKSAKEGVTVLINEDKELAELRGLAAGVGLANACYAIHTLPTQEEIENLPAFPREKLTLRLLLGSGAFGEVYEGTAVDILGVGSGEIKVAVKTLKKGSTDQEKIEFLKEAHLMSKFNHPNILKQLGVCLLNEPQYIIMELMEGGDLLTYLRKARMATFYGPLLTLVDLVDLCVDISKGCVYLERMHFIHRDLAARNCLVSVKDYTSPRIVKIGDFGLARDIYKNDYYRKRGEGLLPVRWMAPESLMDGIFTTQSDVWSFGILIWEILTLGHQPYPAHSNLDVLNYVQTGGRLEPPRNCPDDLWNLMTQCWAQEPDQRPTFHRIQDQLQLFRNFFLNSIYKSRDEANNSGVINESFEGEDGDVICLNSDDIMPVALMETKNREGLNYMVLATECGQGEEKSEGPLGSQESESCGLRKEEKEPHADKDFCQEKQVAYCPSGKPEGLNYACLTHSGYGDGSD
# measurementNotes: Ba/F3-Ros1 cell proliferation assay, L2026M gatekeeper mutant
# Assay type: cell-based, murine
# testParameters: -log IC50 (M), no IL-3
Reported Ba/F3 Ros1 L2026M (-IL-3) pIC50 values for the following molecules.

# example entries with known answers
CC(C)c1ccc(COc2ccc(-c3c(-c4ccncn4)nn4c3NCC4)c(F)c2)cc1 [Co. 15]	<5
CC(C)c1ccc(COc2ccc(-c3c(-c4ccncc4)nn4c3NCC4)cn2)cc1 [Co. 4]	7.1

Here's the next entry for you.
input: Query (molecule): CNC(=O)c1ccnc2c(-c3ccc(OCc4ccc(C(C)C)cc4)cc3)c(-c3ccncc3)nn12 [Co. J] ; field requested: Ba/F3 Ros1 L2026M (-IL-3) pIC50
output: 6.8
